# System: HT29 colon
# protocol: NCI tumour cell line growth inhibition, 48 h
assay readout: TGI (µM)

compound | assay readout | inequality operator | reported value
CC1=NN(c2cccc(Cl)c2)C2(SCC(=O)N2c2nc3ccccc3s2)/C1=C\c1ccc(Cl)cc1 (configuration not stated) | TGI | = | 42.7
COc1ccc(CCN2C(=O)C=CC2=O)cc1OC | TGI | = | 13.7
CC(=O)OC1CCN(C(=O)c2ccccc2)CC1CC1(c2cc3ccccc3[nH]2)OCCO1 (configuration not stated) | TGI | > | 100
COc1cc(/C=C2/C(=O)N(C(=O)OC(C)C)C(Cc3cc(OC)c(OC)c(C)c3OC)C(=O)N2Cc2ccccc2)c(OC)c(C)c1OC (configuration not stated) | TGI | > | 100
CC(=O)O[C@H]1C(=O)[C@@]2(C)[C@H]([C@H](OC(=O)c3ccccc3)[C@]3(O)C[C@H](OC(=O)[C@H](OC(=O)OCCC(O)CO)[C@@H](NC(=O)c4ccccc4)c4ccccc4)C(C)=C1C3(C)C)[C@]1(OC(C)=O)CO[C@@H]1C[C@@H]2O (some centres not stated) | TGI | > | 100
O=c1cc(-c2ccccc2)[nH]c2cc(F)c(F)cc12 | TGI | > | 46.4
N#C[S-].[Nd+3].c1cnc2c(c1)ccc1cccnc12.c1cnc2c(c1)ccc1cccnc12.c1cnc2c(c1)ccc1cccnc12 | TGI | = | 20.2

src = PubChem BioAssay (NCI)
